These measurements were taken from the RNAGym collection of RNA variant scans (doi:10.1021/acssynbio.7b00057).

Please provide measured aptazyme ON/OFF ratio for the entries that follow.
B1: Pistol ribozyme (parent)
chain: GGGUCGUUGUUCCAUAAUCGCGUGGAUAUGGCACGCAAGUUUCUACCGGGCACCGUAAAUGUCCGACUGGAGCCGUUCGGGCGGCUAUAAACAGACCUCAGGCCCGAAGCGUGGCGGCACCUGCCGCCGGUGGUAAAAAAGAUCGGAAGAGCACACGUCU

Variants of: B1
Protocol details: aptazyme ON/OFF ratio, guanine; higher = stronger switching; co-transcriptional cleavage with and without guanine

Ask | Indicate its recorded aptazyme ON/OFF ratio; the variant in question is U7A G9A U10C C13G
Reply | 1.06

Ask | Indicate its recorded aptazyme ON/OFF ratio; the variant in question is U7C U8A U10G U11A C13U
Reply | 1.07

Ask | Indicate its recorded aptazyme ON/OFF ratio; the variant in question is U8C U10G U11G C12A C13A
Reply | 1.11

Ask | Indicate its recorded aptazyme ON/OFF ratio; the variant in question is U7G U8A G9A U10G U11G C12U C13U
Reply | 1.17

Ask | Indicate its recorded aptazyme ON/OFF ratio; the variant in question is U7C G9U U10A C12A C13A
Reply | 1.37

Ask | Indicate its recorded aptazyme ON/OFF ratio; the variant in question is U7C U8A G9C U10G U11A C12A
Reply | 1.38

Ask | Indicate its recorded aptazyme ON/OFF ratio; the variant in question is U7G U8A G9A U10G U11C C12U C13U
Reply | 1.1

Ask | Indicate its recorded aptazyme ON/OFF ratio; the variant in question is U7A U8A G9C U10A C12G
Reply | 1.25

Ask | Indicate its recorded aptazyme ON/OFF ratio; the variant in question is U7G G9A U10A U11G C12A C13G
Reply | 1.08

Ask | Indicate its recorded aptazyme ON/OFF ratio; the variant in question is U7A U8G G9A U10G U11C C12U C13U
Reply | 1.14

Ask | Indicate its recorded aptazyme ON/OFF ratio; the variant in question is U7G U8A G9U U11C C12G C13U
Reply | 1.08

Ask | Indicate its recorded aptazyme ON/OFF ratio; the variant in question is U7C G9C U10A U11G C12U C13U
Reply | 1.13

Ask | Indicate its recorded aptazyme ON/OFF ratio; the variant in question is U7G U8G G9A U10G U11G C13A
Reply | 1.13

Ask | Indicate its recorded aptazyme ON/OFF ratio; the variant in question is U7A U8C U11C C12G C13A
Reply | 1.32

Ask | Indicate its recorded aptazyme ON/OFF ratio; the variant in question is U7C U8G G9U U10C U11G C13A
Reply | 1.19

Ask | Indicate its recorded aptazyme ON/OFF ratio; the variant in question is U8C U10G U11A C12A C13A
Reply | 1.18

Ask | Indicate its recorded aptazyme ON/OFF ratio; the variant in question is U7A G9U U11A C13A
Reply | 1.12

Ask | Indicate its recorded aptazyme ON/OFF ratio; the variant in question is U8A G9A U10C U11C C13U
Reply | 1.05

Ask | Indicate its recorded aptazyme ON/OFF ratio; the variant in question is U11C C12G C13G
Reply | 1.49

Ask | Indicate its recorded aptazyme ON/OFF ratio; the variant in question is U8C G9C U10C U11A C13A
Reply | 1.01

Ask | Indicate its recorded aptazyme ON/OFF ratio; the variant in question is U7G U8G G9A U10A U11G C13A
Reply | 1.09

Ask | Indicate its recorded aptazyme ON/OFF ratio; the variant in question is U7G G9A U11A C12G C13G
Reply | 1.13

Ask | Indicate its recorded aptazyme ON/OFF ratio; the variant in question is U7A G9U U10G U11C C12A
Reply | 1.21

Ask | Indicate its recorded aptazyme ON/OFF ratio; the variant in question is U7G U8A G9U U10G U11G C12G
Reply | 1.29

Ask | Indicate its recorded aptazyme ON/OFF ratio; the variant in question is U7A U8A G9A U10C C12A
Reply | 1.1

Ask | Indicate its recorded aptazyme ON/OFF ratio; the variant in question is U7G G9A U10A U11C C12U C13G
Reply | 1.15

Ask | Indicate its recorded aptazyme ON/OFF ratio; the variant in question is U7A U8A G9C U10C U11A C12G C13U
Reply | 1.1

Ask | Indicate its recorded aptazyme ON/OFF ratio; the variant in question is U7G U10A C13A
Reply | 1.13

Ask | Indicate its recorded aptazyme ON/OFF ratio; the variant in question is U7C U8G G9C U10G U11G C12A C13A
Reply | 1.15

Ask | Indicate its recorded aptazyme ON/OFF ratio; the variant in question is U8C G9U U10A U11C C12G C13G
Reply | 1.28

Ask | Indicate its recorded aptazyme ON/OFF ratio; the variant in question is U7G G9A U10G U11A C12A
Reply | 1.09

Ask | Indicate its recorded aptazyme ON/OFF ratio; the variant in question is U7G U8C G9C U10G U11G C12A C13U
Reply | 1.1

Ask | Indicate its recorded aptazyme ON/OFF ratio; the variant in question is U7A U8C G9C U11C C12G C13A
Reply | 1.07

Ask | Indicate its recorded aptazyme ON/OFF ratio; the variant in question is U7G U8A U10A U11C C12A C13U
Reply | 1.17

Ask | Indicate its recorded aptazyme ON/OFF ratio; the variant in question is U7A U8A G9U U10C U11C C12A C13U
Reply | 1.05

Ask | Indicate its recorded aptazyme ON/OFF ratio; the variant in question is U7G U8A U10G C12A C13U
Reply | 1.15

Ask | Indicate its recorded aptazyme ON/OFF ratio; the variant in question is U10G U11A C13U
Reply | 1.05

Ask | Indicate its recorded aptazyme ON/OFF ratio; the variant in question is U7C U8A G9A U10C C13U
Reply | 1.51

Ask | Indicate its recorded aptazyme ON/OFF ratio; the variant in question is U7C U8G G9C U10G U11A C12U C13G
Reply | 1.27

Ask | Indicate its recorded aptazyme ON/OFF ratio; the variant in question is U7C G9A U10C U11A C12G C13G
Reply | 1.39

Ask | Indicate its recorded aptazyme ON/OFF ratio; the variant in question is U7A U8G C13G
Reply | 1.1

Ask | Indicate its recorded aptazyme ON/OFF ratio; the variant in question is U7C U8C G9C U10A U11A C13U
Reply | 1.15

Ask | Indicate its recorded aptazyme ON/OFF ratio; the variant in question is U7G U8C U10G C13G
Reply | 1.22

Ask | Indicate its recorded aptazyme ON/OFF ratio; the variant in question is U8A G9A U10A C12U
Reply | 1.24

Ask | Indicate its recorded aptazyme ON/OFF ratio; the variant in question is U7G U8C G9U U10A C12A C13A
Reply | 1.18

Ask | Indicate its recorded aptazyme ON/OFF ratio; the variant in question is U7G G9C C12G
Reply | 1.91

Ask | Indicate its recorded aptazyme ON/OFF ratio; the variant in question is U7G U8C G9A U10C U11C C12G C13A
Reply | 1.15

Ask | Indicate its recorded aptazyme ON/OFF ratio; the variant in question is U7G U8C G9U U11A C12G C13A
Reply | 1.1

Ask | Indicate its recorded aptazyme ON/OFF ratio; the variant in question is G9A U10G U11A C12U
Reply | 1.04

Ask | Indicate its recorded aptazyme ON/OFF ratio; the variant in question is U7G U8C G9C U10C U11G C12A C13G
Reply | 1.09

Ask | Indicate its recorded aptazyme ON/OFF ratio; the variant in question is U7G U8A G9C U10A U11G C13A
Reply | 1.02

Ask | Indicate its recorded aptazyme ON/OFF ratio; the variant in question is U8A G9A U10G U11C C12A C13U
Reply | 1.16

Ask | Indicate its recorded aptazyme ON/OFF ratio; the variant in question is U7G U8C G9A U10G
Reply | 3.04

Ask | Indicate its recorded aptazyme ON/OFF ratio; the variant in question is U7G G9C U10A U11A C12U C13G
Reply | 1.25

Ask | Indicate its recorded aptazyme ON/OFF ratio; the variant in question is U7A U8A G9U U10G U11C
Reply | 1.05

Ask | Indicate its recorded aptazyme ON/OFF ratio; the variant in question is U7G U10A U11G C13U
Reply | 1.22

Ask | Indicate its recorded aptazyme ON/OFF ratio; the variant in question is U7A U8G U10G U11C C13U
Reply | 1.3

Ask | Indicate its recorded aptazyme ON/OFF ratio; the variant in question is U7C G9U U10G U11A C12G C13G
Reply | 1.24

Ask | Indicate its recorded aptazyme ON/OFF ratio; the variant in question is G9C U10G C12G
Reply | 1.19

Ask | Indicate its recorded aptazyme ON/OFF ratio; the variant in question is U7G G9U U11C C13A
Reply | 1.37

Ask | Indicate its recorded aptazyme ON/OFF ratio; the variant in question is U8C U10G U11C C12A
Reply | 2.79

Ask | Indicate its recorded aptazyme ON/OFF ratio; the variant in question is U7A U8A U10C U11C C12G C13A
Reply | 1.1

Ask | Indicate its recorded aptazyme ON/OFF ratio; the variant in question is U10C U11A C12A C13G
Reply | 1.36

Ask | Indicate its recorded aptazyme ON/OFF ratio; the variant in question is U7G U8G G9U U10A U11C C12U C13A
Reply | 1.16

Ask | Indicate its recorded aptazyme ON/OFF ratio; the variant in question is U7G U8G G9C U10A U11A C12G C13A
Reply | 1.08

Ask | Indicate its recorded aptazyme ON/OFF ratio; the variant in question is U7G U8A G9U U10C U11A C12A C13A
Reply | 1.14

Ask | Indicate its recorded aptazyme ON/OFF ratio; the variant in question is U7C U8G G9C C12A C13A
Reply | 1.21

Ask | Indicate its recorded aptazyme ON/OFF ratio; the variant in question is U7A U8C G9C U11C C12U
Reply | 1.03

Ask | Indicate its recorded aptazyme ON/OFF ratio; the variant in question is U7G U8C G9A U10C U11A C12A C13G
Reply | 1.11

Ask | Indicate its recorded aptazyme ON/OFF ratio; the variant in question is U7G U8A G9A U10A U11C C13G
Reply | 1.08

Ask | Indicate its recorded aptazyme ON/OFF ratio; the variant in question is U8G G9U U10G U11G C12G C13G
Reply | 1.17

Ask | Indicate its recorded aptazyme ON/OFF ratio; the variant in question is U7G U8G U11C C13A
Reply | 1.41

Ask | Indicate its recorded aptazyme ON/OFF ratio; the variant in question is U7G U8G U11G C13A
Reply | 1.21

Ask | Indicate its recorded aptazyme ON/OFF ratio; the variant in question is U7C G9C U11A C12U C13G
Reply | 1.03

Ask | Indicate its recorded aptazyme ON/OFF ratio; the variant in question is U7C U8A U10A U11G C12U C13A
Reply | 1.18

Ask | Indicate its recorded aptazyme ON/OFF ratio; the variant in question is U8G G9A U11A C12U C13A
Reply | 1.24
